Molecular target: T1, human LILRB2 expressed on cells (human, UniProt Q8N423 22-597)
T1 construct: CHO-s cells over-expressing full-length human LILRB2, or primary human macrophages and dendritic cells; also called hLILRB2-CHO-s; hLILRB2+ CHO-s
T1 sequence (Q8N423 other isoform, or with tags, fused parts or gaps limits assumed): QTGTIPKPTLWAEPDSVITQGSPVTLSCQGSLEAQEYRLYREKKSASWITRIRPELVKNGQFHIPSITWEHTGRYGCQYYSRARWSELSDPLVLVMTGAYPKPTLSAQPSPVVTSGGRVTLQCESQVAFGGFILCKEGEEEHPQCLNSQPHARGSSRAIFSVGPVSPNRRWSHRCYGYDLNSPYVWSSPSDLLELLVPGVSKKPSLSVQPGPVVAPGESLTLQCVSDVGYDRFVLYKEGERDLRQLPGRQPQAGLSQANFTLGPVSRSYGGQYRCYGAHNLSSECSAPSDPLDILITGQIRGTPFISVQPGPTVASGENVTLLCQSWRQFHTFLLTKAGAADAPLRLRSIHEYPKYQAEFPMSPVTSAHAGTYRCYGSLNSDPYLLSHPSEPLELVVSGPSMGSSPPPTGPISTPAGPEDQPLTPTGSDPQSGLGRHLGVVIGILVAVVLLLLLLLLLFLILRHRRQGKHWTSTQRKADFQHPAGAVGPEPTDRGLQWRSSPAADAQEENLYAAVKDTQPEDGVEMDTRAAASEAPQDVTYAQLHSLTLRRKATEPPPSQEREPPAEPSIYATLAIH
Test: HLA-G:LILRB2 blocking; HLA-G tetramer on primary human macrophages, flow cytometry
# EC50 listing for each entry below
Your answer should be a plain number; it is taken to be in nM.

binder: J-19.h4 (antibody, human IgG4 S228P, kappa, V domains shown, Humanized, human IgG4 backbone) VH: QVTLKESGPALVKPTHTLTLTCTFSGFSLNTYAMGVSWIRQPPGKALEWLASIWWNGNKYNNPSLKSRLTISKDTSKNQVVLTMTNMDPEDTATFYCAHSRIIRFTDYVMDAWGRGTTVTVSS VL: DIVMTQSPSSLSASVGDTVTITCRASEDIYNDLAWYQQKPGKAPQLLLYNANSLHTGVPSRFSGSGSGTDYTLTISTLQPEDFATYYCQQYYDYPLTFGPGTKVHIKR
quantity.kind: EC50
unit.info: nM
quantitative.result: 0.131

binder: J-19.h1 (antibody, human IgG4 S228P, kappa, V domains shown, Humanized, human IgG4 backbone) VH: QITLKESGPTLVKPTQTLTLTCTFSGFSLNTYAMGVSWIRQPPGKALEWLASIWWNGNKYNNPSLKSRLTVTKDTSKNQVVLTMTNMDPVDTATYYCAHSRIIRFTDYVMDAWGQGTLVTVSS VL: DIQMTQSPSSLSTSVGDRVTITCRASEDIYNDLAWYQQKPGKAPKLLIYNANSLHTGVASRFSGSGSGTDFTFTISSLQPEDVATYFCQQYYDYPLTFGQGTKLEIKR
quantity.kind: EC50
unit.info: nM
quantitative.result: 0.162

binder: J-19.h2 (antibody, human IgG4 S228P, kappa, V domains shown, Humanized, human IgG4 backbone) VH: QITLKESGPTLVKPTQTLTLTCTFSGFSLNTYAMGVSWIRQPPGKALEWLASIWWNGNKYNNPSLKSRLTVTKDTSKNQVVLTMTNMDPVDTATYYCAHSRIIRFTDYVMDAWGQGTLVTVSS VL: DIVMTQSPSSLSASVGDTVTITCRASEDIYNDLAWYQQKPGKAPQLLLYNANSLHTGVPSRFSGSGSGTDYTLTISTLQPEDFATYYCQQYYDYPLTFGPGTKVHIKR
quantity.kind: EC50
unit.info: nM
quantitative.result: 0.122

Field: next binder
Query: // EC50 lookup, key: J-19.h3 (antibody, human IgG4 S228P, kappa, V domains shown, Humanized, human IgG4 backbone) VH: QVTLKESGPSLVKPTQTLTLTCTFSGFSLNTYAMGVSWIRQPPGKALEWLASIWWNGNKYNNPSLKSRLTITKDTSKNQVVLKVTNMDPADTATYYCAHSRIIRFTDYVMDAWGQGTTVTVSS VL: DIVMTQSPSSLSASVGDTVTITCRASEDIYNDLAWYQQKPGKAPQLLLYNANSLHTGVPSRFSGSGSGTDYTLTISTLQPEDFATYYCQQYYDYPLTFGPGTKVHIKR
Result: 0.113
